Data provenance: ChEMBL document CHEMBL4706628

Item-by-item account of inhibition
Target: Bifunctional epoxide hydrolase 2 (Homo sapiens)
Sequence (P34913 whole entry): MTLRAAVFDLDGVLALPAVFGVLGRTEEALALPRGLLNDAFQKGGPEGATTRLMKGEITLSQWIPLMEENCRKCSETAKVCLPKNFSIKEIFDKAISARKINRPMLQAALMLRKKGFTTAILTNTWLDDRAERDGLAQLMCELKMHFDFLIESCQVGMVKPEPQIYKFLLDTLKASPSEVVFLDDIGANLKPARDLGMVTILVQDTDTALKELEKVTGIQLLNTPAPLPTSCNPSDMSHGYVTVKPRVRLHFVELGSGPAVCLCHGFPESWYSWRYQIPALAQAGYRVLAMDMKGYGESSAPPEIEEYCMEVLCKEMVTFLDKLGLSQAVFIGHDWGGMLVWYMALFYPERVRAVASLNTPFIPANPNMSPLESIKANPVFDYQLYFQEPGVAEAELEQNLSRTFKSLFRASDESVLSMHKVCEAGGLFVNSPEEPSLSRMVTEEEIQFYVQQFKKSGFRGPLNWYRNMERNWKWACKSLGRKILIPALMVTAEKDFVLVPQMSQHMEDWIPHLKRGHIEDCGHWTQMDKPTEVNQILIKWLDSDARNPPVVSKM
Experiment: Inhibition of recombinant human sEH at 100 nM using PHOME as substrate measured after 15 mins by fluorescence assay relative to control

>  <querySmiles>
Nc1nc2ccc(N(CCN3CCOCC3)C(=O)NCc3ccc(Cl)cc3)cc2s1

>  <measuredTarget>
Bifunctional epoxide hydrolase 2 (Homo sapiens)

>  <inhibition [%]>
14.5

$$$$
>  <querySmiles>
Nc1nc2ccc(N(CCN3CCOCC3)C(=O)Nc3ccccc3)cc2s1

>  <measuredTarget>
Bifunctional epoxide hydrolase 2 (Homo sapiens)

>  <inhibition [%]>
40.4

$$$$
>  <querySmiles>
O=C(Nc1ccc(Cl)cc1)Nc1nc2ccc([N+](=O)[O-])cc2s1

>  <measuredTarget>
Bifunctional epoxide hydrolase 2 (Homo sapiens)

>  <inhibition [%]>
7.2

$$$$
>  <querySmiles>
COc1ccc(CC(=O)Nc2nc3ccc(N(CCN4CCOCC4)C(=O)Nc4ccc(Cl)cc4)cc3s2)cc1

>  <measuredTarget>
Bifunctional epoxide hydrolase 2 (Homo sapiens)

>  <inhibition [%]>
65.8

$$$$
>  <querySmiles>
Nc1nc2ccc(N(CCN3CCOCC3)C(=O)Nc3ccc(F)c(Br)c3)cc2s1

>  <measuredTarget>
Bifunctional epoxide hydrolase 2 (Homo sapiens)

>  <inhibition [%]>
90.5

$$$$
>  <querySmiles>
O=C(Cc1ccccc1)Nc1nc2ccc(N(CCN3CCOCC3)C(=O)Nc3ccc(Cl)cc3)cc2s1

>  <measuredTarget>
Bifunctional epoxide hydrolase 2 (Homo sapiens)

>  <inhibition [%]>
84.7

$$$$
>  <querySmiles>
Nc1nc2ccc(N(CCN3CCOCC3)C(=O)Nc3cccc(C(F)(F)F)c3)cc2s1

>  <measuredTarget>
Bifunctional epoxide hydrolase 2 (Homo sapiens)

>  <inhibition [%]>
6.18

$$$$
>  <querySmiles>
O=C(Nc1ccc(Cl)cc1)Nc1nc2ccc(N(CCN3CCOCC3)C(=O)Nc3ccc(Cl)cc3)cc2s1

>  <measuredTarget>
Bifunctional epoxide hydrolase 2 (Homo sapiens)

>  <inhibition [%]>
90.2

$$$$
>  <querySmiles>
CN(C)CCN(C(=O)Nc1ccc(Cl)cc1)c1ccc2nc(N)sc2c1

>  <measuredTarget>
Bifunctional epoxide hydrolase 2 (Homo sapiens)

>  <inhibition [%]>
39.1

$$$$
>  <querySmiles>
Nc1nc2ccc(NC(=O)Nc3cccc4ccccc34)cc2s1

>  <measuredTarget>
Bifunctional epoxide hydrolase 2 (Homo sapiens)

>  <inhibition [%]>
34.1

$$$$

---

Test system: Mus musculus
Assay: Antiinflammatory activity in BALB/c mouse model of carrageenan-induced paw edema assessed as paw edema at 100 mg/kg, ip pretreated for 1 hr followed by carrageenan challenge and measured after 2 hrs by caliper method relative to control
Type: functional
Conditions: time 3 hrs
Item-by-item account of Activity

>  <querySmiles>
Nc1nc2ccc(N(CCN3CCOCC3)C(=O)Nc3ccc(Cl)cc3)cc2s1

>  <readoutUnit>
%

>  <Activity>
19.06

$$$$
>  <querySmiles>
O=C(Cc1ccccc1)Nc1nc2ccc(N(CCN3CCOCC3)C(=O)Nc3ccc(Cl)cc3)cc2s1

>  <readoutUnit>
%

>  <Activity>
17.58

$$$$
>  <querySmiles>
O=C(NC12CC3CC(CC(C3)C1)C2)N[C@H]1CC[C@H](Oc2ccc(C(=O)O)cc2)CC1

>  <readoutUnit>
%

>  <Activity>
22.61

$$$$
>  <querySmiles>
Nc1nc2ccc(N(CCN3CCOCC3)C(=O)Nc3ccc(F)c(Br)c3)cc2s1

>  <readoutUnit>
%

>  <Activity>
31.49

$$$$

---

Target: Bifunctional epoxide hydrolase 2 (Homo sapiens) (UniProt P34913)
Test: Inhibition of recombinant human sEH at 100 nM using PHOME as substrate measured after 15 mins by fluorescence assay relative to control
Item-by-item account of inhibition
quantityKind: inhibition (%)

>  <querySmiles>
O=C(Nc1nc2ccc(N(CCN3CCOCC3)C(=O)Nc3ccc(Cl)cc3)cc2s1)c1ccc(F)cc1

>  <readoutUnit>
%

>  <result>
64

$$$$
>  <querySmiles>
Nc1nc2ccc(N(CCN3CCCCC3)C(=O)Nc3ccc(Cl)cc3)cc2s1

>  <readoutUnit>
%

>  <result>
84.6

$$$$
>  <querySmiles>
CCc1ccc(NC(=O)N(CCN2CCOCC2)c2ccc3nc(N)sc3c2)cc1

>  <readoutUnit>
%

>  <result>
84.7

$$$$
>  <querySmiles>
Nc1nc2ccc(NC(=O)Nc3ccccc3)cc2s1

>  <readoutUnit>
%

>  <result>
40.1

$$$$
>  <querySmiles>
Nc1nc2ccc(N(CCCN3CCOCC3)C(=O)Nc3ccc(Cl)cc3)cc2s1

>  <readoutUnit>
%

>  <result>
9.44

$$$$
>  <querySmiles>
CC1CCN(CCN(C(=O)Nc2ccc(Cl)cc2)c2ccc3nc(N)sc3c2)CC1

>  <readoutUnit>
%

>  <result>
77.5

$$$$
>  <querySmiles>
CCN(CC)CCN(C(=O)Nc1ccc(Cl)cc1)c1ccc2nc(N)sc2c1

>  <readoutUnit>
%

>  <result>
86.3

$$$$
>  <querySmiles>
Nc1ccc2nc(NC(=O)Nc3ccc(Cl)cc3)sc2c1

>  <readoutUnit>
%

>  <result>
6.7

$$$$
>  <querySmiles>
Nc1nc2ccc(N(CCN3CCOCC3)C(=O)Nc3ccc(F)cc3)cc2s1

>  <readoutUnit>
%

>  <result>
74.3

$$$$
>  <querySmiles>
CC(=O)c1ccc(NC(=O)N(CCN2CCOCC2)c2ccc3nc(N)sc3c2)cc1

>  <readoutUnit>
%

>  <result>
28.2

$$$$

---

Item-by-item account of remaining at 1 h, 10 µM
Test: in vitro
Settings: Sprague-Dawley, rat, liver microsomes
Description: Stability in Sprague-Dawley rat liver microsomes assessed as parent compound remaining at 10 uM measured after 60 mins in presence of NADPH regenerating system by HPLC analysis

>  <querySmiles>
O=C(Cc1ccccc1)Nc1nc2ccc(N(CCN3CCOCC3)C(=O)Nc3ccc(Cl)cc3)cc2s1

>  <remaining at 1 h, 10 µM, %>
0

$$$$
>  <querySmiles>
Nc1nc2ccc(N(CCN3CCOCC3)C(=O)Nc3ccc(Cl)cc3)cc2s1

>  <remaining at 1 h, 10 µM, %>
30.1

$$$$
>  <querySmiles>
O=C(O)Cc1ccccc1Nc1c(Cl)cccc1Cl

>  <remaining at 1 h, 10 µM, %>
16.9

$$$$
>  <querySmiles>
Nc1nc2ccc(N(CCN3CCOCC3)C(=O)Nc3ccc(F)c(Br)c3)cc2s1

>  <remaining at 1 h, 10 µM, %>
36.2

$$$$

---

Target: Bifunctional epoxide hydrolase 2 (Homo sapiens)
Experiment: Mixed-type inhibition of recombinant human sEH using PHOME as substrate measured after 15 mins by fluorescence based Lineweaver-burk plot analysis
quantityKind: Ki (nM)

>  <querySmiles>
O=C(Cc1ccccc1)Nc1nc2ccc(N(CCN3CCOCC3)C(=O)Nc3ccc(Cl)cc3)cc2s1

>  <measuredTarget>
Bifunctional epoxide hydrolase 2 (Homo sapiens)

>  <quantityKind>
Ki

>  <result>
4.77

$$$$

---

Experiment: in vitro
Details: Sprague-Dawley, rat, liver microsomes
Item-by-item account of microsomal CLint at 1 h, 10 µM

>  <querySmiles>
O=C(Cc1ccccc1)Nc1nc2ccc(N(CCN3CCOCC3)C(=O)Nc3ccc(Cl)cc3)cc2s1

>  <readoutUnit>
µL/min/mg

>  <microsomal CLint at 1 h, 10 µM>
820

$$$$
>  <querySmiles>
Nc1nc2ccc(N(CCN3CCOCC3)C(=O)Nc3ccc(Cl)cc3)cc2s1

>  <readoutUnit>
µL/min/mg

>  <microsomal CLint at 1 h, 10 µM>
40

$$$$
>  <querySmiles>
Nc1nc2ccc(N(CCN3CCOCC3)C(=O)Nc3ccc(F)c(Br)c3)cc2s1

>  <readoutUnit>
µL/min/mg

>  <microsomal CLint at 1 h, 10 µM>
31

$$$$
>  <querySmiles>
O=C(O)Cc1ccccc1Nc1c(Cl)cccc1Cl

>  <readoutUnit>
µL/min/mg

>  <microsomal CLint at 1 h, 10 µM>
59.3

$$$$

---

Tested on: HepG2
Assay: Cytotoxicity against human HepG2 cells assessed as reduction in cell viability measured after 48 hrs by MTT assay
Format: cell-based
Conditions: HepG2, 48 h

>  <querySmiles>
Nc1nc2ccc(N(CCN3CCOCC3)C(=O)Nc3ccc(Cl)cc3)cc2s1

>  <IC50>
> 25 µM

$$$$
>  <querySmiles>
Nc1nc2ccc(N(CCN3CCOCC3)C(=O)Nc3ccc(F)c(Br)c3)cc2s1

>  <IC50>
> 25 µM

$$$$
>  <querySmiles>
O=C(Cc1ccccc1)Nc1nc2ccc(N(CCN3CCOCC3)C(=O)Nc3ccc(Cl)cc3)cc2s1

>  <IC50>
> 25 µM

$$$$

---

Item-by-item account of solubility kinetic at 2 h
Experiment: Solubility of compound in pH 7.4 PBS buffer measured after 2 hrs by turbidimetric assay
Type: physicochemical

>  <querySmiles>
Nc1nc2ccc(N(CCN3CCOCC3)C(=O)Nc3ccc(F)c(Br)c3)cc2s1

>  <solubility kinetic at 2 h>
68 µg/mL

$$$$
>  <querySmiles>
Nc1nc2ccc(N(CCN3CCOCC3)C(=O)Nc3ccc(Cl)cc3)cc2s1

>  <solubility kinetic at 2 h>
39 µg/mL

$$$$
>  <querySmiles>
O=C(Cc1ccccc1)Nc1nc2ccc(N(CCN3CCOCC3)C(=O)Nc3ccc(Cl)cc3)cc2s1

>  <solubility kinetic at 2 h>
61 µg/mL

$$$$
>  <querySmiles>
O=C(Nc1ccc(Cl)cc1)Nc1nc2ccc(N(CCN3CCOCC3)C(=O)Nc3ccc(Cl)cc3)cc2s1

>  <solubility kinetic at 2 h>
30 µg/mL

$$$$
